Tested on: UACC-62 melanoma
Experiment: NCI-60 one-dose screen, 48 h
Conditions: 10 µM unless noted
The panel holds about 83,000 compounds, 20% with a hit somewhere; the sample as a whole holds those more often. Activity calls are given as the source filed them. The calls were made as follows: active = growth percent below 10; inactive = the rest.
Response enum: YES (active), NO (inactive)

// known answers, use as guide
{"COMPOUND": "CCN(CC)CCn1c(=O)n(C)c2ccccc21", "CAT": "NO"}
{"COMPOUND": "COc1cc2c(cc1OC)-c1c3c(cc4c1[C@@H](C2)N(C)CC4)OCO3", "CAT": "NO"}
{"COMPOUND": "O=P(O)(Nc1ccccc1)Nc1ccccc1", "CAT": "NO"}
{"COMPOUND": "COCC1OC2OC3C(COC)OC(OC4C(COC)OC(OC5C(COC)OC(OC6C(COC)OC(OC7C(COC)OC(OC8C(COC)OC(OC1C(O)C2O)C(O)C8O)C(O)C7O)C(O)C6O)C(O)C5O)C(O)C4O)C(O)C3O (configuration not stated) (tested in a mixture with another compound)", "CAT": "NO"}
{"COMPOUND": "C[C@]12CC[C@@H](OC(=O)N(CCCl)N=O)C[C@@H]1CC[C@@H]1[C@@H]2CC[C@]2(C)C(=O)CC[C@@H]12", "CAT": "NO"}

Which outcome was assigned to `COc1cc(C=C2C(=O)NC(=O)NC2=O)ccc1O` in this test?
NO

// param item: `NC(N)=NC(N)=Nc1ccc(Cl)cc1` ; yields the recorded call
NO
